Listing of recorded Th-T assay plate reading, mean of three wells (Supplementary Fig. 47) by entry.
- system-name: UniProt:P05067
- Sequence (P05067 672-713): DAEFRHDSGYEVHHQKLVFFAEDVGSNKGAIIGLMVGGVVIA
- protocol-details: Th-T (thioflavin-T) assay of Aβ42 aggregation
- Format: biochemical
- test-settings: measurement M9; source data, Ab alone and No Ab as controls
measured-metric: Th-T assay plate reading, mean of three wells (Supplementary Fig. 47)

compound="C=C1CC[C@H]2[C@]3(C)C[C@H](C=C(C)C)O[C@H]3CC[C@]2(C)[C@@H]1Cc1c(OC)oc(CO)c(C)c1=O [Compound 18]" system_name=UniProt:P05067 result=0.5243
compound="CC(C)=CCC/C(C)=C/CC/C(C)=C/CC/C(C)=C/Cc1c(O)c(C)c(C)oc1=O [Compound 2]" system_name=UniProt:P05067 result=0.8275
compound="C=C1CCC2C(C)(CC(=O)C=C(C)C)C(O)CCC2(C)C1Cc1c(OC)oc(C)c(C)c1=O (centres unmarked) [Compound 25]" system_name=UniProt:P05067 result=0.5868
compound="C=C1CCC2C(C)(CCC=C(C)C)C(O)CCC2(C)C1Cc1c(OC)oc(CO)c(C)c1=O (centres unmarked) [Compound 12]" system_name=UniProt:P05067 result=1.95
compound="C=C1CCC2C3(C)CC(C=C(C)C)OC3CCC2(C)C1Cc1c(OC)oc(C)c(C)c1=O (centres unmarked) [Compound 23]" system_name=UniProt:P05067 result=0.4563
compound="C=C1CC[C@H]2[C@]3(C)C[C@H](C=C(C)C)O[C@H]3CC[C@]2(C)[C@@H]1Cc1c(O)c(C)c(C)oc1=O [Compound 6, subglutinol B]" system_name=UniProt:P05067 result=0.6456
compound="C=C1CC[C@H]2[C@]3(C)C[C@@H](C=C(C)C)O[C@H]3CC[C@]2(C)[C@@H]1Cc1c(O)c(C)c(C)oc1=O [Compound 5, subglutinol A]" system_name=UniProt:P05067 result=0.6839
compound="C=C1CC[C@@H]2[C@](C)(CC[C@H]3O[C@H](C=C(C)C)C[C@@]23C)[C@@H]1Cc1c(OC)oc(CO)c(C)c1=O [Compound 20]" system_name=UniProt:P05067 result=0.5189
compound="C=C1CCC2C(C)(CCC=C(C)C)C(O)CCC2(C)C1Cc1c(OC)oc(CO)c(C(=O)OC)c1=O (centres unmarked) [Compound 13]" system_name=UniProt:P05067 result=0.1809
compound="C=C1CCC2C(C)(CCC=C(C)C)C(O)CCC2(C)C1Cc1c(OC)oc(C)c(C(=O)OC)c1=O (centres unmarked) [Compound 14]" system_name=UniProt:P05067 result=0.3225
compound="C=C1CCC2C(C)(CC(=O)C=C(C)C)C(O)CCC2(C)C1Cc1c(O)c(C)c(C)oc1=O (centres unmarked) [Compound 7]" system_name=UniProt:P05067 result=0.6534
compound="C=C1CCC2C(C)(CCC=C(C)C)C(O)CCC2(C)C1Cc1c(O)c(C)c(C)oc1=O (centres unmarked) [Compound 4]" system_name=UniProt:P05067 result=0.6972
compound="C=C1CC[C@@H]2[C@](C)(CC[C@H]3O[C@H](C=C(C)C)C[C@@]23C)[C@@H]1Cc1c(O)c(C)c(C)oc1=O [Compound 10, higginsianin A]" system_name=UniProt:P05067 result=0.6554
compound="C=C1CCC2C(C)(CCC=C(C)C)C(=O)CCC2(C)C1Cc1c(O)c(C)c(C)oc1=O (centres unmarked) [Compound 8]" system_name=UniProt:P05067 result=0.444
